B1: SMG5 (parent)
chain: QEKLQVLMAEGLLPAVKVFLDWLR

Variants of: B1
Assay: protein stability index of a GFP-peptide fusion (GPS, HEK-293T) (PSI 1-6); higher = more stable;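 also: lentivirally expressed fusions sorted by FACS into six bins by GFP to DsRed ratio, PSI derived from sequencing read proportions per bin multiplied by bin number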
Settings: c terminus: a fixed tail appended
Rule: criterion met for protein stability index not less than 2, criterion not met for anything less.

Answered cases to consult:
QEKLQVLMAEGLLPAVKVFLDWLA
criterion not met
QEKLQVLMKEGLLPAVKVFLDWLR
criterion met
QEKLQVLMAEGLLPAVKVMLDWLR
criterion met
QEKLQELMAEGLLPAVKVFLDWLR
criterion met
QEKLQVLMAEGLLPYVKVFLDWLR
criterion met
QEKLQVLMAEKLLPAVKVFLDWLR
criterion not met
QEKLQVLMAEGLLPAVKVFLDWDR
criterion met
QEFLQVLMAEGLLPAVKVFLDWLR
criterion not met
QEKLQVLMAEGLPPAVKVFLDWLR
criterion met
QEKLQVLMAEGLLPAVKVFLDALR
criterion met

Query :: Check this variant for protein stability index at or above 2: QEKLQVLIAEGLLPAVKVFLDWLR
Result :: criterion not met

Query :: Exam item: decide whether the reported protein stability index for QEKLNVLMAEGLLPAVKVFLDWLR is at least 2.
Result :: criterion not met

Query :: Is reported protein stability index greater than or equal to 2 here: QEKLQVLFAEGLLPAVKVFLDWLR
Result :: criterion not met

Query :: Quick check: does QEKLQVLMAEGVLPAVKVFLDWLR have protein stability index greater than or equal to 2?
Result :: criterion not met

Query :: Determine whether measured protein stability index meets or exceeds 2 for QEKLQVLMAEGLLPNVKVFLDWLR
Result :: criterion met

Query :: Check this variant for protein stability index at or above 2: QEKLQVLMAEGLLPAVKVFLPWLR
Result :: criterion not met

Query :: Form field: protein stability index at least 2? Entry: QEKLQVLMAEGLLPAVKVFLDWAR
Result :: criterion not met

Query :: Confirm if protein stability index reported for the variant QEKLQVLMAEGLLPAVKVFLHWLR is 2 or above.
Result :: criterion met

Query :: Check this variant for protein stability index at or above 2: QEKLQVLMAEGLLPAVKEFLDWLR
Result :: criterion met

Query :: Threshold query (protein stability index >= 2) on QEKLQVLMAEGSLPAVKVFLDWLR
Result :: criterion met

Query :: Does protein stability index meet or surpass 2 for QEKLQVLMAEGLSPAVKVFLDWLR ?
Result :: criterion met

Query :: Threshold query (protein stability index >= 2) on QEKLQVLMAEGLLPASKVFLDWLR
Result :: criterion met

Query :: Does the variant QEKLQVLMAEILLPAVKVFLDWLR have recorded protein stability index that is 2 or more?
Result :: criterion not met
